These data points were gathered from PubChem BioAssay AID1159580.

Assay: chemical genetic growth profiling, strain panel (AID 1159580);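 note: tested at 20 µM; growth read once vehicle control cultures reached saturation at 30 °C; 1 = growth at the plate median or of vehicle wells; lower values mean less growth of the strain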
Details: S. cerevisiae deletion strains, growth OD, locus YGR252W, strain gcn5, hits give low values
Screen size: about 5,500 compounds; about 2,000 (36%) were called active. Inconclusive results (about 18%) are left out. The list shows a part of the results.
Criterion: normalized growth strictly less than 1. Met: rule met. Not met: rule not met.

# molecule, cat
rows = [
    ("COc1ccc([C@@H]2CC(=O)c3c(O)cc(O[C@@H]4O[C@H](CO[C@H]5O[C@@H](C)[C@H](O)[C@@H](O)[C@H]5O)[C@@H](O)[C@H](O)[C@H]4O)cc3O2)cc1O", "rule not met"),
    ("C[C@H]1c2cccc(O)c2C(O)=C2C(=O)[C@]3(O)C(O)=C(C(N)=O)C(=O)[C@@H](N(C)C)[C@@H]3[C@@H](O)[C@@H]21", "rule met"),
    ("CN(C)c1ccc(O)c2c1C[C@H]1C[C@H]3[C@H](N(C)C)C(=O)C(C(N)=O)=C(O)[C@@]3(O)C(=O)C1=C2O", "rule met"),
    ("CNNC", "rule met"),
    ("CC(=O)Oc1cccc(O)c1", "rule not met"),
    ("CN(C)[C@@H]1C(=O)C(C(N)=O)=C(O)[C@@]2(O)C(=O)C3=C(O)c4c(O)ccc(Cl)c4[C@@H](O)[C@H]3C[C@@H]12", "rule met"),
    ("Oc1c(Cl)cc(Cl)cc1Sc1cc(Cl)cc(Cl)c1O", "rule not met"),
    ("COc1cc(C/C=C/c2ccccc2)c(OC)cc1O", "rule not met"),
    ("COc1ccccc1OCC(O)CO (configuration not stated)", "rule not met"),
    ("CCOC(=O)[C@H](CCc1ccccc1)N[C@@H](C)C(=O)N1CCC[C@H]1C(=O)O", "rule not met"),
    ("CCCc1c(OCCCCc2nn[nH]n2)ccc(C(C)=O)c1O", "rule met"),
    ("C=C1c2cccc(O)c2C(O)=C2C(=O)[C@]3(O)C(O)=C(C(N)=O)C(=O)[C@@H](N(C)C)[C@@H]3[C@@H](O)[C@H]12", "rule not met"),
    ("CNCCCC12CCC(c3ccccc31)c1ccccc12", "rule met"),
    ("CN(C)C(=O)Oc1cccc([N+](C)(C)C)c1", "rule not met"),
    ("NC(Cn1ccc(=O)c(O)c1)C(=O)O (configuration not stated)", "rule not met"),
    ("CC(N=C(NC#N)Nc1ccncc1)C(C)(C)C (configuration not stated)", "rule met"),
    ("CS(=O)(=O)Nc1ccc([N+](=O)[O-])cc1Oc1ccccc1", "rule met"),
    ("CC(C)c1ccc2c(c1)CCC1C(C)(C(N)=O)CCCC21C (configuration not stated)", "rule met"),
    ("CC(C)=CCc1c2c(c3occ(-c4ccc(O)c(O)c4)c(=O)c3c1O)C=CC(C)(C)O2", "rule met"),
    ("NC(=O)NC(=O)Cc1ccccc1", "rule not met"),
    ("CC(CCC(=O)O)[C@H]1CCC2C3CC[C@@H]4CC(=O)CC[C@]4(C)C3C=C[C@@]21C (some centres not stated)", "rule met"),
    ("C=C1c2c(Cl)ccc(O)c2C(O)=C2C(=O)[C@]3(O)C(O)=C(C(N)=O)C(=O)[C@@H](N(C)C)[C@@H]3[C@@H](O)[C@H]12", "rule met"),
    ("CCCc1cc(=O)[nH]c(=S)[nH]1", "rule met"),
]

----------
Below, each entry is listed alongside its reported normalized growth.
Assay: chemical genetic growth profiling, strain panel (AID 1159580);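 note: tested at 20 µM; growth read once vehicle control cultures reached saturation at 30 °C; 1 = growth at the plate median or of vehicle wells; lower values mean less growth of the strain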
Details: S. cerevisiae deletion strains, growth OD, locus YLR058C, strain SHM2, hits give low values
Screen size: about 5,500 compounds; about 2,000 (36%) were called active. Another 18% or so got no clear call; they are omitted. Some of the results follow.

# compound, normalized growth
measured = [
    ("CCN(CC)CCOC(=O)C(c1ccccc1)C1CCCCC1 (stereo unspecified)", 1),
    ("NCC(N)C(=O)c1ccccc1 (stereo unspecified)", 1.01),
    ("CC(=O)OC1CCC2(C)C(CC(OC(C)=O)C3(C)C4=CC(=O)OC(c5ccoc5)C4(C)CCC23)C1(C)C (stereo unspecified)", 0.989),
    ("NC(=O)NC(=O)Cc1ccccc1", 1.01),
    ("CC(C)(C)NCC(O)c1ccc(O)c(CO)c1 (stereo unspecified)", 1.01),
    ("Nc1ccc(C(=O)O)cc1", 1.01),
    ("CCCSc1ccc2nc(NC(=O)OC)[nH]c2c1", 0.988),
    ("OC[C@H]1O[C@@H](O[C@H]2[C@H](O)[C@@H](O)[C@@H](O)O[C@@H]2CO)[C@H](O)[C@@H](O)[C@@H]1O", 1.02),
    ("CCCc1cc(=O)[nH]c(=S)[nH]1", 1.02),
    ("NS(=O)(=O)c1cc2c(cc1Cl)NC(CSCc1ccccc1)=NS2(=O)=O", 0.982),
    ("CC(=O)O[C@@H]1CC[C@@]2(C)C(C[C@@H](OC(C)=O)[C@@]3(C)C4=CC(=O)O[C@@H](c5ccoc5)[C@]4(C)CCC23)C1(C)C (stereo partly specified)", 1.01),
    ("CN(C)[C@@H]1C(=O)C(C(N)=O)=C(O)[C@@]2(O)C(=O)C3=C(O)c4c(O)ccc(Cl)c4[C@@](C)(O)[C@H]3C[C@@H]12", 0.998),
    ("CC(C)CC(NC(=O)OCC1c2ccccc2-c2ccccc21)C(=O)O (stereo unspecified)", 0.997),
    ("CCCOc1ccc2nc(NC(=O)OC)[nH]c2c1", 0.99),
    ("COC(=O)c1c(OC)cc2c(c1C)Oc1c(Cl)c(OC(C)=O)c(Cl)c(C)c1C(=O)O2", 1),
    ("CC(=O)O[C@H]1CCC2(C)C3=C(CCC2C1(C)C)[C@@]1(C)CC[C@@H](C(C)CCC=C(C)C)[C@]1(C)CC3 (stereo partly specified)", 1.01),
    ("COc1cc(C/C=C/c2ccccc2)c(OC)cc1O", 0.987),
    ("COc1c(C)c2c(c(C)c1Cl)Oc1c(Cl)c(OC)c(Cl)c(C)c1C(=O)O2", 1.02),
    ("CC(=O)Oc1ccc(/C=C/c2cc(OC(C)=O)cc(OC(C)=O)c2)cc1", 0.99),
    ("CC(C)=CCCC(C)C1CC[C@@]2(C)C3=C(CC[C@]12C)C1(C)CC[C@H](O)C(C)(C)C1CC3 (stereo partly specified)", 0.981),
    ("O=C(O)c1cccnc1", 0.981),
    ("NCC(=O)c1ccccc1", 1.02),
    ("O=C(O)c1ccc(S(=O)(=O)N(Cl)Cl)cc1", 1.01),
    ("NC1=NCCN1CC(=O)O", 0.975),
    ("COC(=O)c1c(C)c2c(c(C)c1O)OC(=O)c1c(C)c(Cl)c(O)c(Cl)c1O2", 0.985),
    ("CCN(CC)CCOC(=O)C1(C2CCCCC2)CCCCC1", 0.985),
    ("CC(=O)Oc1ccc(C(c2ccc(OC(C)=O)cc2)c2ccccn2)cc1", 0.984),
    ("O=C(NCO)c1cccnc1", 0.986),
    ("CCCN(CCC)S(=O)(=O)c1ccc(C(=O)O)cc1", 1),
    ("CC(=O)O[C@@H]1CC2C(C)(C)[C@H](O)C=C[C@]2(C)C2CC[C@]3(C)C(=CC(=O)O[C@H]3c3ccoc3)[C@@]21C (stereo partly specified)", 1),
    ("CC(CCc1ccccc1)NCC(O)c1ccc(O)c(C(N)=O)c1 (stereo unspecified)", 1),
    ("COC(=O)c1c(C)c2c(c(C)c1OC)OC(=O)c1c(C)c(Cl)c(OC)c(Cl)c1O2", 1.02),
    ("CO[C@H]1CC(O[C@@H]2/C(C)=C/C[C@@H]3C[C@@H](C[C@]4(CC[C@H](C)[C@@H](C5CCCCC5)O4)O3)OC(=O)[C@@H]3C=C(C)/C(=N\\O)[C@H]4OC/C(=C\\C=C\\[C@@H]2C)[C@]43O)O[C@@H](C)C1O (stereo partly specified)", 0.987),
    ("COc1ccccc1OCC(O)CO (stereo unspecified)", 1.01),
    ("Nc1ccc(S(=O)(=O)NC(=O)c2ccccc2)cc1", 1.01),
    ("CC(=O)O[C@H]1CC[C@@]2(C)C(C[C@@H](OC(C)=O)[C@@]3(C)C4=CC(=O)O[C@@H](c5ccoc5)[C@]4(C)CCC23)C1(C)C (stereo partly specified)", 1.01),
]

----------
Assay: chemical genetic growth profiling, strain panel (AID 1159580);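 note: tested at 20 µM; growth read once vehicle control cultures reached saturation at 30 °C; 1 = growth at the plate median or of vehicle wells; lower values mean less growth of the strain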
Conditions: S. cerevisiae deletion strains, growth OD, locus YAL021C, strain ccr4
About 2,000 (36%) of roughly 5,500 compounds were called active. About 18% were inconclusive and are not listed. Rule as the data show it: active = normalized growth mostly below about 0.91 (no sharp cut-off); inconclusive = no clear call, values can overlap the other calls; inactive = mostly above about 0.92. Some of the results follow.
Labels: active, inactive

# compound, cat
data = [
    ("CC(=O)O[C@H]1CCC2(C)C3=C(CCC2C1(C)C)[C@@]1(C)CC[C@@H](C(C)CCC=C(C)C)[C@]1(C)CC3 (stereo not given in full)", "inactive"),
    ("O=C(NCO)c1cccnc1", "inactive"),
    ("CN(C)C(=O)Oc1cccc([N+](C)(C)C)c1", "inactive"),
    ("NC1=NCCN1CC(=O)O", "inactive"),
    ("CC(C)=CC1C(C(=O)O)C1(C)C (stereo not given)", "inactive"),
    ("CC(C)(C)NCC(O)c1ccc(O)c(CO)c1 (stereo not given)", "inactive"),
    ("CC(C)c1ccc2c(c1)CCC1C(C)(C(N)=O)CCCC21C (stereo not given)", "inactive"),
    ("N=C(N)N", "inactive"),
    ("CCCc1cc(=O)[nH]c(=S)[nH]1", "inactive"),
    ("CC(C)(C)NC[C@H](O)c1ccc(O)c(CO)c1", "inactive"),
    ("CC(=O)O[C@H]1CC[C@@]2(C)C(=CC(=O)C3C4CCC(C(C)CCCC(C)C)[C@@]4(C)CCC32)C1 (stereo not given in full)", "inactive"),
    ("CN1CCN(C(=O)OC2c3nccnc3C(=O)N2c2ccc(Cl)cn2)CC1 (stereo not given)", "inactive"),
    ("CC(=O)N[C@@H](Cc1c[nH]c2ccccc12)C(N)=O", "inactive"),
    ("C[n+]1ccccc1/C=N/O", "inactive"),
    ("CC(=O)Oc1ccc(/C=C/c2cc(OC(C)=O)cc(OC(C)=O)c2)cc1", "inactive"),
    ("CC(C)C[C@@H](CN)CC(=O)O", "inactive"),
    ("O=C(OCc1ccccc1)c1ccccc1", "inactive"),
    ("CC(CCc1ccccc1)NCC(O)c1ccc(O)c(C(N)=O)c1 (stereo not given)", "inactive"),
    ("CC(C)c1ccc2c(c1)CCC1[C@](C)(CN)CCC[C@]21C (stereo not given in full)", "active"),
    ("CC1=CC(=O)c2ccccc2C1=O", "inactive"),
    ("CCN(CC)CCOC(=O)C1(C2CCCCC2)CCCCC1", "inactive"),
    ("Nc1ccc(S(=O)(=O)NC(=O)c2ccccc2)cc1", "inactive"),
    ("O=C(O)c1ccc(S(=O)(=O)N(Cl)Cl)cc1", "inactive"),
    ("CC(N=C(NC#N)Nc1ccncc1)C(C)(C)C (stereo not given)", "inactive"),
    ("CNCCCC12CCC(c3ccccc31)c1ccccc12", "inactive"),
    ("OC[C@H]1O[C@@H](O[C@H]2[C@H](O)[C@@H](O)[C@@H](O)O[C@@H]2CO)[C@H](O)[C@@H](O)[C@@H]1O", "inactive"),
    ("CC(Cc1cccc(C(F)(F)F)c1)NCCOC(=O)c1ccccc1 (stereo not given)", "active"),
    ("CC(C)CCCC(C)[C@H]1CCC2C3CC=C4CC(=O)CC[C@]4(C)C3CC[C@@]21C (stereo not given in full)", "inactive"),
    ("CCOC(=O)NNc1nncc2ccccc12", "inactive"),
    ("CC(C)CCCC(C)[C@H]1CCC2C3CC=C4C[C@@H](O)CC[C@]4(C)C3CC[C@@]21C (stereo not given in full)", "inactive"),
    ("CC(C)=CCCC(C)[C@@H]1CC[C@]2(C)C3=C(CC[C@@]12C)C1(C)CC[C@H](O)C(C)(C)C1CC3 (stereo not given in full)", "inactive"),
    ("NC(=O)c1cccnc1", "inactive"),
    ("NCC(N)C(=O)c1ccccc1 (stereo not given)", "inactive"),
    ("Cc1cc(=O)oc2cc(O)c(O)cc12", "inactive"),
    ("CCC(C)C(=O)OC1[C@@H]2CC3=C4CC(=O)O[C@@H](c5ccoc5)[C@]4(C)CCC3[C@@](C)(C2=O)[C@@H](CC(=O)OC)C1(C)C (stereo not given in full)", "inactive"),
    ("CC(=O)OCC(=O)[C@@]1(O)[C@H](C)CC2C3CCC4=CC(=O)C=C[C@]4(C)[C@@]3(F)[C@@H](O)C[C@@]21C (stereo not given in full)", "inactive"),
    ("CNNC", "inactive"),
    ("CC12CCC3C(CC3(C)C)C(C)(CCC1=O)O2 (stereo not given)", "inactive"),
    ("Cc1cc(=O)[nH]c(=S)[nH]1", "inactive"),
    ("COc1ccc2cc(CCC(C)=O)ccc2c1", "inactive"),
]
